The following compounds are listed with their measured pIC50 values.
target: human Nav1.7 (Homo sapiens (Human), UniProt Q15858); experiment: Human Nav1.7 inhibitory activity evaluation (automated patch clamp QPatch16X, HEK293A cells stably expressing human Nav1.7 and human Navβ1); format: cell-based; conditions: human Nav1.7, automated patch clamp
Sequence (Q15858 whole entry): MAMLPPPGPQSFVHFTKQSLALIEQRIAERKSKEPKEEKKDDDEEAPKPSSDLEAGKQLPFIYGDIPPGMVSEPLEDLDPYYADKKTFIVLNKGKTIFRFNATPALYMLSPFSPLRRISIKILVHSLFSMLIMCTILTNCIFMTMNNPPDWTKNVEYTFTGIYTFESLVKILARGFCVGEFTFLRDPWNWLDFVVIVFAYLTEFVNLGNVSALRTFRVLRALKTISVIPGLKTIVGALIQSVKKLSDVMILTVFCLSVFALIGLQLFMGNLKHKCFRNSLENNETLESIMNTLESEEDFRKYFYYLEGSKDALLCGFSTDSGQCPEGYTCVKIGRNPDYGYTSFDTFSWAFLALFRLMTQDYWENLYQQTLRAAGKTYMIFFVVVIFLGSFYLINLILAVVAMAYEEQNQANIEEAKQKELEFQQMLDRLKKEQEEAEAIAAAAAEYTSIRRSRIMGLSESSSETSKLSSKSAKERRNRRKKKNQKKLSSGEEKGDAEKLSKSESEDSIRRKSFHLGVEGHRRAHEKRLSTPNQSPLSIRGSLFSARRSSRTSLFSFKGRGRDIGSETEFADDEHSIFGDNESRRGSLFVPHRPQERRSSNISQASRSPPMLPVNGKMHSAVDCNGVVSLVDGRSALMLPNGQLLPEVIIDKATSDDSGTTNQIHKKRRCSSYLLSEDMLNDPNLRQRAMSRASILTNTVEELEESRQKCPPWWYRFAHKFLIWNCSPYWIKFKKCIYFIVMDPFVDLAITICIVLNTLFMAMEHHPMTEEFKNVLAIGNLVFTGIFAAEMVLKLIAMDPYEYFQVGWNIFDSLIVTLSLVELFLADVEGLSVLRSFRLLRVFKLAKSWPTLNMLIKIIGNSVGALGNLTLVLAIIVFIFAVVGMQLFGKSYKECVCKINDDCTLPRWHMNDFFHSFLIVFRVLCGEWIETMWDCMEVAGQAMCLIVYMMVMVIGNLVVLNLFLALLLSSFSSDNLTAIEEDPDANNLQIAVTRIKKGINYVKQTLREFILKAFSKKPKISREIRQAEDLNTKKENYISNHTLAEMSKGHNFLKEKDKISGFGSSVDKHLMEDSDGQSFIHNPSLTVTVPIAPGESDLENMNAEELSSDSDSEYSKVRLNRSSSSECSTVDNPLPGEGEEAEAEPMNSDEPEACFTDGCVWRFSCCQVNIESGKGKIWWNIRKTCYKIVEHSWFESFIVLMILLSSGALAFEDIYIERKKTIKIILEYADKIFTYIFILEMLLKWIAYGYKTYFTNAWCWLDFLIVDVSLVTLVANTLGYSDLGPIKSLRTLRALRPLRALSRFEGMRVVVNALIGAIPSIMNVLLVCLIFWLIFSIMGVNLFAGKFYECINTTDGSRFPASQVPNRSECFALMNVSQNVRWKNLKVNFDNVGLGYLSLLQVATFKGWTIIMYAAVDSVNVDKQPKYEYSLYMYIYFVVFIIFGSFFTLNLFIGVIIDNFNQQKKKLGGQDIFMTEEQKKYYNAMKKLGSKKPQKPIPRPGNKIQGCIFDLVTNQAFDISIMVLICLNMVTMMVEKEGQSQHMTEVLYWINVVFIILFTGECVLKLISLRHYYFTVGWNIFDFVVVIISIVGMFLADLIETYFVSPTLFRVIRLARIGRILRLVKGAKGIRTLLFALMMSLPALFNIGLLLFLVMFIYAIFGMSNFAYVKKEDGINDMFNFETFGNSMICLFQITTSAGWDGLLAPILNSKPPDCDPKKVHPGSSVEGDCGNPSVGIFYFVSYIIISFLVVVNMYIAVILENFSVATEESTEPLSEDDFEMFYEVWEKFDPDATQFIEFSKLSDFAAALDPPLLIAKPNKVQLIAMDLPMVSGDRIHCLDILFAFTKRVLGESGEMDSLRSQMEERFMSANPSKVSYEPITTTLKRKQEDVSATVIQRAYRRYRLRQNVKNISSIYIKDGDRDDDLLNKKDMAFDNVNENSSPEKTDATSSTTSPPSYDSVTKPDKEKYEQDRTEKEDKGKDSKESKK
Sequence (Q07699 19-218 partner): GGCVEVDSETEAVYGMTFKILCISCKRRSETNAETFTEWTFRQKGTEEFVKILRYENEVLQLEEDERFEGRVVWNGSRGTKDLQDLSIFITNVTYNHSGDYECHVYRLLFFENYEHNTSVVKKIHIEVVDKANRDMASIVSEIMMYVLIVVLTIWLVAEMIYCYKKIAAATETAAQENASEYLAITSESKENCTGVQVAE
pIC50: −log10 of the molar value.

> print(dat)
                                   compound  obs.value
1  O=C(N[C@H]1COc2ccc(Cl)cc2C1)c1cc2n(n1)CCN(CCOc1ccccn1)C2     > 5.00
2  O=C(N[C@H]1COc2ccc(COCC(F)(F)F)cc2C1)c1cc2n(n1)CCC(CCOC(F)F)O2 (single isomer, unassigned) [150 (isomer A)]     > 6.00
3  O=C(N[C@H]1COc2ccc(C(F)(F)F)cc2C1)c1nn2c(c1-c1cccc(COCC(F)(F)F)n1)COCC2     > 6.00
4  N#CC1(COCC2CCn3nc(C(=O)N[C@H]4COc5ccc(Cl)cc5C4)cc3O2)CC1 (single isomer, unassigned) [563 (isomer A)]     > 5.00
5  O=C(N[C@H]1COc2ccc(CCOC(F)F)cc2C1)c1cc2n(n1)CC(CCN1CC(F)(F)C1)O2 (stereo partly shown) [Example 237]     > 6.00

What measured pIC50 goes with O=C(N[C@H]1COc2ccc(C(F)(F)F)cc2C1)c1cc2n(n1)CCN(CC1CCOC1)C2 (stereo partly shown) ?
> 5.00

// repeat for O=C(N[C@H]1COc2ccc(Cl)cc2C1)c1cc2n(n1)CC(CNCC(F)(F)F)O2 (stereo partly shown) and report
> 6.00

// repeat for COC1c2cc(C(F)(F)F)ccc2OC[C@@H]1NC(=O)c1cc2n(n1)CCC(COCC(F)(F)F)O2 (stereo partly shown) [Example 570] and report
> 6.00
